Entry source: the Human Domainome abundance scans (Beltran et al. 2025)

Kindly state abundance fitness for each of the entries shown.
B1: Calcium-binding protein 2, residues 155 to 219; numbered along this chain, Q9NPB3 (parent)
chain: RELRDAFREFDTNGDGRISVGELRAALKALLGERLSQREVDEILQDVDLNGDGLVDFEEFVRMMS

variants of: B1; assay: abundance fitness (aPCA) (normalised: wild type 0, dead -1); higher = more abundant; growth selection in yeast, the domain comes from the species named; details: Homo sapiens
Give bare numbers.

For every record below, what is its abundance fitness?
1. L35C
2. R62H

Marked response:
1: -0.113; 2: -0.233

For every record below, what is its abundance fitness?
1. L31P
2. L30I
3. F10S
4. F7W
5. L23M
6. D46E
7. L35F

Marked response:
[0.028, -0.134, -0.148, -0.142, 0.025, -0.155, -0.257]

For every record below, what is its abundance fitness?
1. N13H
2. F60Q

Marked response:
1. -0.644
2. -0.899

For every record below, what is its abundance fitness?
1. S19L
2. L23Q

Marked response:
1. -0.532
2. -0.468

For every record below, what is its abundance fitness?
1. L3S
2. S36P
3. L3W

Marked response:
1. -0.473
2. -0.107
3. -0.187

For every record below, what is its abundance fitness?
1. V47A
2. R4H
3. A29D
4. L3Y
5. G32L
6. A26G
7. V40H
8. V20P

Marked response:
-0.143
-0.074
0.063
-0.139
-0.64
0.05
0.038
0.163

For every record below, what is its abundance fitness?
1. R34S
2. K28L

Marked response:
-0.019
-0.07

For every record below, what is its abundance fitness?
1. N13Q
2. R34T

Marked response:
-0.924
0.018
